Entries and their Ratio values follow.
tgt: Opioid receptors; mu & delta (Rattus norvegicus) (UniProt P33533+P33535)
Sequence (P33533 whole entry, looked up): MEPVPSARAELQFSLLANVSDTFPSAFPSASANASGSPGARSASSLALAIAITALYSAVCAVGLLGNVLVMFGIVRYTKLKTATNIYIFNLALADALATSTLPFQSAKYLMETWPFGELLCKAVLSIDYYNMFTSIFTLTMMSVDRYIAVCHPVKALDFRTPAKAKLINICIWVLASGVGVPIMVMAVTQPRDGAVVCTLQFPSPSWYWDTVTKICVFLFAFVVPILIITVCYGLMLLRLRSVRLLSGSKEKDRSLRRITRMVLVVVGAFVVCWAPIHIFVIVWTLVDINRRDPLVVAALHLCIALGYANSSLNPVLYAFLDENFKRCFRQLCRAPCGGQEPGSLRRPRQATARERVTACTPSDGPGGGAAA
Sequence (P33535 whole entry, looked up): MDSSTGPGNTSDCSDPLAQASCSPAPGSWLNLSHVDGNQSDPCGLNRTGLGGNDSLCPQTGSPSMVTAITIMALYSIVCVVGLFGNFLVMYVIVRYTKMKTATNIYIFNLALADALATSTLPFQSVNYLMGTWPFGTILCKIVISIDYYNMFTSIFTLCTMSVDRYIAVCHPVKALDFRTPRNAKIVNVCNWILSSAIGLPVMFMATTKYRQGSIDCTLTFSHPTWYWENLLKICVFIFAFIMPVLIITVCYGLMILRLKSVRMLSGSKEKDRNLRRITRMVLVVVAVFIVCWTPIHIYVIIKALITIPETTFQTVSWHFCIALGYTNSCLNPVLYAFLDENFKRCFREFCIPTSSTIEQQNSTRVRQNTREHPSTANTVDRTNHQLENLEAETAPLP
protocol_summary: Antagonistic activity ratio (Ki of mu receptors compared to Ki of delta receptors).
Assay type: functional
Where a SMILES comes first, the peptide text is derived from it. [ ]: non-standard residue; d: D form. The star is where a group is joined. Dmt = Cc1cc(O)cc(C)c1C[C@H](N)C(=O)O; Tic = O=C(O)[C@@H]1Cc2ccccc2CN1; NHtBu = CC(C)(C)N*; NHNH2 = NN*
When you answer, write just the number.

Cc1cc(O)cc(C)c1C[C@@H](C(=O)N1Cc2ccccc2C[C@H]1C(=O)NC12C[C@H]3C[C@@H](C1)C[C@@H](C2)C3)N(C)C :: 9
CNC(=O)[C@H](C)NC(=O)[C@@H]1Cc2ccccc2CN1C(=O)[C@@H](N)Cc1c(C)cc(O)cc1C (H-[Dmt]-[Tic]-Ala-NHMe) :: 47
Cc1cc(O)cc(C)c1C[C@@H](C(=O)N1Cc2ccccc2C[C@@H]1C(=O)NC12C[C@H]3C[C@@H](C1)C[C@@H](C2)C3)N(C)C :: 0.42
Cc1cc(O)cc(C)c1C[C@H](N)C(=O)N1Cc2ccccc2C[C@H]1C(=O)NN (H-[Dmt]-[Tic]-NHNH2) :: 2

So what's the measured Ratio for this one? Cc1cc(O)cc(C)c1C[C@H](N)C(=O)N1Cc2ccccc2C[C@H]1C(=O)NC(C)(C)C (H-[Dmt]-[Tic]-NHtBu)
6

Fill in the blank: the reported Ratio of CNC(=O)[C@@H]1Cc2ccccc2CN1C(=O)[C@H](Cc1c(C)cc(O)cc1C)N(C)C is ____.
1270

Which Ratio value belongs to Cc1cc(O)cc(C)c1C[C@H](N)C(=O)N1Cc2ccccc2C[C@H]1C(=O)Nc1nn[nH]n1 ?
4

Request the reported Ratio associated with Cc1cc(O)cc(C)c1CC(CN)C(=O)N1Cc2ccccc2C[C@H]1C(=O)O (some centres not stated)
4

Please look up its Ratio: Cc1cc(O)cc(C)c1C[C@@H](C(=O)N1Cc2ccccc2C[C@H]1C(=O)O)N1CCCC1
573

Which Ratio value belongs to Cc1cc(O)cc(C)c1C[C@@H](C(=O)N1Cc2ccccc2C[C@H]1C(=O)O)N1CCCCC1 ?
2760

Would you kindly share the measured Ratio for Cc1cc(O)cc(C)c1C[C@H](N)C(=O)N1Cc2ccccc2C[C@H]1C(=O)N[C@@H](C)C(=O)NC(C)(C)C (H-[Dmt]-[Tic]-Ala-NHtBu) ?
48

Using the record for Cc1cc(O)cc(C)c1C[C@@H](C(=O)N1Cc2ccccc2C[C@H]1C(=O)O)n1cccc1 , report its Ratio.
562

---

tgt: Delta-type opioid receptor (Rattus norvegicus)
Sequence (P33533 whole entry): as the sequence (P33533 whole entry, looked up) above
protocol_summary: Binding affinity at Opioid receptor delta 1 from rat brain synaptosomal preparations by [3H]N,N-(Me)2-Dmt-Tic-OH displacement.
Entries and their measured pKi follow.
The meaning of pKi here: minus log10 of the concentration in molar units.

Here are 4 compounds together with their reported answers.
Cc1cc(O)cc(C)c1C[C@@H](C(=O)N1Cc2ccccc2C[C@@H]1C(=O)NC12C[C@H]3C[C@@H](C1)C[C@@H](C2)C3)N(C)C :: 6.85
Cc1cc(O)cc(C)c1C[C@H](N)C(=O)N1Cc2ccccc2C[C@@H]1C(=O)NC12C[C@H]3C[C@@H](C1)C[C@@H](C2)C3 :: 7.61
Cc1cc(O)cc(C)c1C[C@@H](C(=O)N1Cc2ccccc2C[C@H]1C(=O)NC12C[C@H]3C[C@@H](C1)C[C@@H](C2)C3)N(C)C :: 9.80
Cc1cc(O)cc(C)c1C[C@H](N)C(=O)N1Cc2ccccc2C[C@H]1C(=O)NC12C[C@H]3C[C@@H](C1)C[C@@H](C2)C3 :: 9.59

For the next question, use this compound.
For Cc1cc(O)cc(C)c1C[C@H](N)C(=O)N1Cc2ccccc2C[C@H]1C(=O)N[C@@H](C)C(=O)NC12C[C@H]3C[C@@H](C1)C[C@@H](C2)C3 , what is its reported pKi?
10.14

---

Recorded Ke by entry
Organism: Mus musculus
protocol_summary: Antagonistic functional bioactivity against delta-receptor from mouse vas deferens(MVD).
Where a SMILES comes first, the peptide text is derived from it. [ ]: non-standard residue; d: D form. Dmt = Cc1cc(O)cc(C)c1C[C@H](N)C(=O)O; Tic = O=C(O)[C@@H]1Cc2ccccc2CN1

Please review the entries below; each comes with its answer.
CNC(=O)[C@@H]1Cc2ccccc2CN1C(=O)[C@@H](N)Cc1c(C)cc(O)cc1C (H-[Dmt]-[Tic]-NHMe) :: >10000 nM
Cc1cc(O)cc(C)c1C[C@@H](C(=O)N1Cc2ccccc2C[C@@H]1C(=O)NC12C[C@H]3C[C@@H](C1)C[C@@H](C2)C3)N(C)C :: 128 nM
Cc1cc(O)cc(C)c1C[C@@H](C(=O)N1Cc2ccccc2C[C@H]1C(=O)O)N1CCCCC1 :: 49 nM

Then this compound:
Which Ke value belongs to Cc1cc(O)cc(C)c1C[C@@H](C(=O)N1Cc2ccccc2C[C@H]1C(=O)O)N1CCCC1 ?
121 nM

---

tgt: Opioid receptors; mu & delta (Rattus norvegicus) (UniProt P33533+P33535)
protocol_summary: Antagonistic activity ratio (Ki of mu receptors compared to Ki of delta receptors).
Type: functional
Where a SMILES comes first, the peptide text is derived from it. [ ]: non-standard residue; d: D form. Dmt = Cc1cc(O)cc(C)c1C[C@H](N)C(=O)O; Tic = O=C(O)[C@@H]1Cc2ccccc2CN1
Measured Ratio, listed per entry.
// return just the number, without any unit appended

Use these answered entries as a reference point.
COC(=O)[C@@H]1Cc2ccccc2CN1C(=O)[C@@H](N)Cc1c(C)cc(O)cc1C (H-[Dmt]-[Tic]-OMe) :: 0.8
Cc1cc(O)cc(C)c1C[C@H](N)C(=O)N1Cc2ccccc2C[C@H]1C(=O)NC12C[C@H]3C[C@@H](C1)C[C@@H](C2)C3 :: 0.8

Please report the recorded Ratio for Cc1cc(O)cc(C)c1C[C@H](N)C(=O)N1Cc2ccccc2C[C@@H]1C(=O)NC12C[C@H]3C[C@@H](C1)C[C@@H](C2)C3 .
0.004

Item under review: COC(=O)[C@H](C)NC(=O)[C@@H]1Cc2ccccc2CN1C(=O)[C@@H](N)Cc1c(C)cc(O)cc1C (H-[Dmt]-[Tic]-Ala-OMe) . Reported Ratio?
83

---

Species: Mus musculus
protocol_summary: Antagonistic functional bioactivity against delta-receptor from mouse vas deferens(MVD).
measurement_setup: read-out: pA2 (converted)
Overview of reported Kb across a group of compounds:
// return numeric value only (unit: nM, not printed)

Could you tell me which Kb is on file for Cc1cc(O)cc(C)c1C[C@@H](C(=O)N1Cc2ccccc2C[C@H]1C(=O)O)N1CCCCC1 ?
49

Given the compound Cc1cc(O)cc(C)c1C[C@@H](C(=O)N1Cc2ccccc2C[C@H]1C(=O)NC12C[C@H]3C[C@@H](C1)C[C@@H](C2)C3)N(C)C , what is its reported Kb?
0.871

Look at this compound and give its reported Kb. Cc1cc(O)cc(C)c1C[C@@H](C(=O)N1Cc2ccccc2C[C@H]1C(=O)O)N1CCCC1
126

---

Species on record: Mus musculus
protocol_summary: Antagonistic functional bioactivity against delta-receptor from mouse vas deferens(MVD).
Where a SMILES comes first, the peptide text is derived from it. [ ]: non-standard residue; d: D form. The star is where a group is joined. Dmt = Cc1cc(O)cc(C)c1C[C@H](N)C(=O)O; Tic = O=C(O)[C@@H]1Cc2ccccc2CN1; NHtBu = CC(C)(C)N*
Catalogue of log10 of Ke values
Recorded Ke (log10, nM)

Cc1cc(O)cc(C)c1C[C@H](N)C(=O)N1Cc2ccccc2C[C@H]1CC(=O)O :: 0.15

Need log10 of Ke of Cc1cc(O)cc(C)c1C[C@H](N)C(=O)N1Cc2ccccc2C[C@H]1C(=O)N[C@@H](C)C(=O)NC12C[C@H]3C[C@@H](C1)C[C@@H](C2)C3 , thanks.
-0.29

Any idea what its log10 of Ke is? The molecule is Cc1cc(O)cc(C)c1C[C@H](N)C(=O)N1Cc2ccccc2C[C@H]1C(=O)NC(C)(C)C (H-[Dmt]-[Tic]-NHtBu)
0.24

Which log10 of Ke reading was recorded for the molecule Cc1cc(O)cc(C)c1C[C@@H](C(=O)N1Cc2ccccc2C[C@H]1C(=O)NC(C)(C)C)N(C)C ?
1.15

Record request: log10 of Ke value, item Cc1cc(O)cc(C)c1C[C@H](N)C(=O)N1Cc2ccccc2C[C@H]1C(=O)N[C@@H](C)C(=O)NC(C)(C)C (H-[Dmt]-[Tic]-Ala-NHtBu)
-0.16

Any idea what its log10 of Ke is? The molecule is Cc1cc(O)cc(C)c1C[C@@H](C(=O)N1Cc2ccccc2C[C@H]1C(=O)NC12C[C@H]3C[C@@H](C1)C[C@@H](C2)C3)N(C)C
-0.06

Entry CNC(=O)[C@@H]1Cc2ccccc2CN1C(=O)[C@H](Cc1c(C)cc(O)cc1C)N(C)C has what log10 of Ke?
-0.39
